tested-system: Serotonin 1 (5-HT1) receptor (Rattus norvegicus, UniProt P28564+P30940+P19327+P28565)
experiment-description: Binding affinity towards 5-hydroxytryptamine 1 receptor using [3H]5-HT as a radioligand from rat frontal cortex homogenates
Type: tissue-based
Examples of compounds with documented IC50 follow.

- input-smiles: "CN1C[C@H](CO)C[C@@H]2c3cccc4[nH]cc(c34)C[C@H]21"
  endpoint-name: "IC50"
  result: "0.12 µM"
- input-smiles: "C[C@H]1C=C2c3cccc4c3[C@@H](CN4)C[C@H]2N(C)C1"
  endpoint-name: "IC50"
  result: "0.02 µM"
- input-smiles: "CSC[C@@H]1C=C2c3cccc4c3[C@@H](CN4)C[C@H]2N(C)C1"
  endpoint-name: "IC50"
  result: "0.02 µM"
- input-smiles: "C[C@@H]1C=C2c3cccc4c3[C@@H](CN4)C[C@H]2N(C)C1"
  endpoint-name: "IC50"
  result: "0.017 µM"
- input-smiles: "CN1C[C@H](CO)C=C2c3cccc4c3[C@@H](CN4)C[C@H]21"
  endpoint-name: "IC50"
  result: "0.026 µM"

QUERY: Report value: IC50, system: Serotonin 1 (5-HT1) receptor (Rattus norvegicus, UniProt P28564+P30940+P19327+P28565), compound: C=C1C=C2c3cccc4c3[C@@H](CN4)C[C@H]2N(C)C1
RESULT: 0.08 µM

These entries and their values trace back to ChEMBL document CHEMBL1124171.
